Each record here notes measured binding relative to P54AR4-83v2 parent.
target: EGFR (form used in the assay not stated) (human, UniProt P00533 25-645, limits assumed); assay: ELISA, NEM conjugate, 500 nM
Give the number; ratio is assumed, so skip it.

Below, each entry is followed by its recorded binding relative to P54AR4-83v2 parent result.
{"columns": ["BINDER", "UNIT OF MEASURE", "binding relative to P54AR4-83v2 parent"],
 "data": [
  ["P54AR4-83v2 N6C, NEM conjugate (designed binder, not shown: small tags and cut ends, N-ethyl maleimide (NEM) on Cys 6) LPAPKCLVVSEVTEDSARLSWDDPWAFYESFLIQYQESEKVGEAIVLTVPGSERSYDLTGLKPGTEYTVSIYGVHNVYKDTNMRGLPLSAIFTT", "ratio", 0.89],
  ["P54AR4-83v2 G60C, NEM conjugate (designed binder, not shown: small tags and cut ends, N-ethyl maleimide (NEM) on Cys 60) LPAPKNLVVSEVTEDSARLSWDDPWAFYESFLIQYQESEKVGEAIVLTVPGSERSYDLTCLKPGTEYTVSIYGVHNVYKDTNMRGLPLSAIFTT", "ratio", 0.93],
  ["P54AR4-83v2 L47C, NEM conjugate (designed binder, not shown: small tags and cut ends, N-ethyl maleimide (NEM) on Cys 47) LPAPKNLVVSEVTEDSARLSWDDPWAFYESFLIQYQESEKVGEAIVCTVPGSERSYDLTGLKPGTEYTVSIYGVHNVYKDTNMRGLPLSAIFTT", "ratio", 0.91],
  ["P54AR4-83v2 E29C, NEM conjugate (designed binder, not shown: small tags and cut ends, N-ethyl maleimide (NEM) on Cys 29) LPAPKNLVVSEVTEDSARLSWDDPWAFYCSFLIQYQESEKVGEAIVLTVPGSERSYDLTGLKPGTEYTVSIYGVHNVYKDTNMRGLPLSAIFTT", "ratio", 0.93],
  ["P54AR4-83v2 A26C, NEM conjugate (designed binder, not shown: small tags and cut ends, N-ethyl maleimide (NEM) on Cys 26) LPAPKNLVVSEVTEDSARLSWDDPWCFYESFLIQYQESEKVGEAIVLTVPGSERSYDLTGLKPGTEYTVSIYGVHNVYKDTNMRGLPLSAIFTT", "ratio", 0.95],
  ["P54AR4-83v2 V46C, NEM conjugate (designed binder, not shown: small tags and cut ends, N-ethyl maleimide (NEM) on Cys 46) LPAPKNLVVSEVTEDSARLSWDDPWAFYESFLIQYQESEKVGEAICLTVPGSERSYDLTGLKPGTEYTVSIYGVHNVYKDTNMRGLPLSAIFTT", "ratio", 0.9]
]}

Input: Find the measured binding relative to P54AR4-83v2 parent of P54AR4-83v2 T93C, NEM conjugate (designed binder, not shown: small tags and cut ends, N-ethyl maleimide (NEM) on Cys 93) LPAPKNLVVSEVTEDSARLSWDDPWAFYESFLIQYQESEKVGEAIVLTVPGSERSYDLTGLKPGTEYTVSIYGVHNVYKDTNMRGLPLSAIFCT and report it.
Output: 1.04

Input: Write down binding relative to P54AR4-83v2 parent measured for item P54AR4-83v2 W25C, NEM conjugate (designed binder, not shown: small tags and cut ends, N-ethyl maleimide (NEM) on Cys 25) LPAPKNLVVSEVTEDSARLSWDDPCAFYESFLIQYQESEKVGEAIVLTVPGSERSYDLTGLKPGTEYTVSIYGVHNVYKDTNMRGLPLSAIFTT
Output: 0.7

Input: Indicate the recorded binding relative to P54AR4-83v2 parent value for this binder: P54AR4-83v2 E53C, NEM conjugate (designed binder, not shown: small tags and cut ends, N-ethyl maleimide (NEM) on Cys 53) LPAPKNLVVSEVTEDSARLSWDDPWAFYESFLIQYQESEKVGEAIVLTVPGSCRSYDLTGLKPGTEYTVSIYGVHNVYKDTNMRGLPLSAIFTT
Output: 0.91
